// read-out IC50, gathered for Tyrosine-protein kinase Fyn (Homo sapiens) from published studies

Below, each entry is followed by its recorded IC50 result.
>>> df
                                 mol_smiles  endpoint_value
0  CN1CCC(c2ccc(C(=O)Nc3n[nH]c4cc(Nc5ccc(F)cc5Cl)ccc34)cc2)CC1          388 nM
1  CCN1CCC(Oc2ccc3c(c2)/C(=C(\c2cccc(Cl)c2)c2nc4ccccc4[nH]2)C(=O)N3)CC1         < 50 nM
2  COCCN1CCC(Nc2ccc3c(c2)/C(=C(\c2ccc(F)cc2)c2nc4ccccc4[nH]2)C(=O)N3)CC1    50 to 500 nM
3  COc1cccc(-c2ncnc(Nc3cc(OC)c(OC)c(OC)c3)n2)c1      > 12200 nM

Hi! Can you tell me IC50 for each of these compounds?
1. COc1cc(Nc2ncnc(-n3c(NCc4ccc(F)cc4Cl)nc4ccccc43)n2)cc(OC)c1OC
2. NC(=O)c1ccc(Nc2ncnc(Nc3cc(-c4ccco4)n[nH]3)n2)cc1
3. COc1cc(Nc2ncnc(Nc3cc(C)[nH]n3)n2)cc(OC)c1OC
4. CCN1CCC(Nc2ccc3c(c2)/C(=C(\c2ccc(C(F)(F)F)cc2)c2nc(C)c[nH]2)C(=O)N3)CC1

["> 8400 nM", "> 12400 nM", "1120 to 6720 nM", "< 50 nM"]

----------
// read-out pIC50, gathered for Tyrosine-protein kinase Fyn (Homo sapiens) from published studies
pIC50: −log10 of the molar value.

>>> df
                                   molecule  measured_attribute  endpoint_value
0  COc1cc(OC2CCN(C3COC3)CC2(F)F)c2c(Nc3c(F)ccc4c3OCO4)ncnc2c1 (racemic)               pIC50          > 7.00

Hi! Can you tell me pIC50 for each of these molecules?
1. COCCN1CCC(Nc2ccc3c(c2)/C(=C(\c2ccc(F)c(F)c2)c2ncc[nH]2)C(=O)N3)CC1
2. COc1cc(Nc2ncnc(Nc3ccc(OCc4ccccc4)cc3)n2)cc(OC)c1OC
3. CCN1CCC(Nc2ccc3c(c2)/C(=C(\c2ccc(F)c(Cl)c2)c2nc(C)c[nH]2)C(=O)N3)CC1
4. Cc1ccc(NC(=O)c2cccc(S(=O)(=O)C(C)C)c2)cc1CCc1cc(Nc2ncccc2C)[nH]n1
5. CN1CCC(Oc2ccc(C(=O)Nc3n[nH]c4cc(Oc5ccccc5F)ccc34)cc2)CC1
6. CCN1CCC(Nc2ccc3c(c2)/C(=C(\c2ccc(C(F)(F)F)cc2)c2ncc[nH]2)C(=O)N3)CC1

1: 6.30 to 7.30; 2: 5.12 to 5.28; 3: > 7.30; 4: 7.06; 5: 6.41; 6: > 7.30

Short answer for CCOc1cc(O[C@@H]2CCN(C)CC2(F)F)c2c(Nc3c(Cl)ccc4c3OCO4)ncnc2c1 : pIC50 was > 7.00

----------
pIC50: −log10 of the molar value.
// read-out pIC50, gathered for Tyrosine-protein kinase Fyn (Homo sapiens) from published studies

Below, each entry is followed by its recorded pIC50 result.
                                   compound  endpoint_value
0  CN1CCC(c2ccc(C(=O)Nc3n[nH]c4cc(Nc5ccccc5Cl)ccc34)cc2)CC1            7.09
1  O=C1Nc2ccc(NC3CCN(CCN4CCCC4)CC3)cc2/C1=C(\c1cccc(F)c1)c1ncc[nH]1    6.30 to 7.30

Hi! Can you tell me pIC50 for each of these compounds?
1. COc1cc(Nc2ncnc(-n3c(Nc4ccc(C)cc4)nc4ccccc43)n2)cc(OC)c1OC
2. COc1cc(Nc2ncnc(-n3c(NC4CCCc5ccccc54)nc4ccccc43)n2)cc(OC)c1OC (stereo not drawn)
3. COc1cc(Nc2ncnc(-n3c(N)nc4cc(Cl)ccc43)n2)cc(OC)c1OC
4. COc1cc(O[C@H]2CCN(C)CC2(F)F)c2c(Nc3cc(OC)c(Cl)cc3F)ncnc2c1

1: < 5.03; 2: < 5.07; 3: 5.09 to 5.25; 4: > 7.00
